Assay: soluble fraction after stress (log2 fold change); higher = more stays soluble; pooled small domains, quantitative proteomics
Settings: stress: 50 degC
parameter: soluble fraction (log2)

Some solved entries appear below for comparison.
monomer_sequence | value_reported
HMKNQQLFNIGDRFQVDGVAYRMEKLFPENGTVEVYNLGVGRHKTMSFEEILALWNSGKLLFEI | -0.185
HMENFIPDDPKRIEIGMSVLHQRFGKGKVMQLEGNLPDMKATVNFEGEGQKQLLLKYARLKIV | -0.232
HMLAQISDEGAIGAVVARVLDAHPNEVARYHAGEEKVAKFLMGAAMRELRGKGDPAVVQRLLSEGLDARRV | 0.119

Below: the item to evaluate.
Give the measured soluble fraction (log2) of "HMNLDELGNRIREQRIKQRLKQQDIANALMLSAQAVSKWERGENAPDISVLPDLVKILGVSVDWLLTGP" . -0.734

----------
Assay: soluble fraction after stress (log2 fold change); higher = more stays soluble; pooled small domains, quantitative proteomics
Conditions: stress: 50 degC
parameter: soluble fraction (log2)
Answers are plain numbers.

monomer_sequence | soluble fraction (log2)
HMKEIDVPNVVGASENAARKLLESYGFQVEVQWENGERVDNAVVKSYSPNGSAKSGSTVTIVLGT | 0.062

Fill in soluble fraction (log2) for each of the 7 sequences listed.
1. HMPSDTNLIGKTGIAYTTLRPGGTALIDDRKVDVVADSEYIEKDKKIKVIRVEGIKVVVTAVK
2. HMDGKTALQEIVASSGWSPPEYKVSESGPDHDKDFVAYAIVNGVAYPEGHGKSKREAEQVAARIAFEALSK
3. HMNIWNEWAFKKWIESDEYTGPDMTDFGHRTLVDEEFSKQYKEQMSLFKERVLTDDEFSAKYGDL
4. HMGNKKLVLKLSKKLIKIPSFLNIYSVKLTKNGRELEINLDKSQNEAIDIINLIKKNNISFLEFDIKKR
5. HMTANPSTEEIMARVEAIPLPIKRLPPGQIVQAQTVAATVLRSNPGLDLAKAWKLAYATVTGQE
6. HMANTLDPMDLKQIISLHLDGFSNRKIGATLGISRNTVNTYMRLFSVSDYALKELLTLDNATLDKLFPS
7. HMRDPLNTGFRQTLKDIVNSLPKNELYSPGVREEYIYPKIGVTSLGMEASMVLNGLISSRRKNIELKEKN

1: 0.091; 2: -0.18; 3: -0.66; 4: -0.267; 5: -0.0416; 6: -2.01; 7: 0.447

----------
Provide the recorded soluble fraction (log2) for the entries that follow.
Experiment: soluble fraction after stress (log2 fold change); higher = more stays soluble; pooled small domains, quantitative proteomics
Conditions: stress: 50 degC
Give bare numbers.

These solved cases illustrate the format of a correct answer.
monomer_sequence | soluble fraction (log2)
HMGDGYTYYYDDTVLALGFTKIGNDYYIFNTFSGKMYKDATMWVNDNPYGIKGGMHYFDASGKMFV | 0.128
HMSEPIYTQLKEILTQKIVNGEFPPGARLPSEYELTELYHISRSTVRLALKELEASGMIVRRRGKGTFVSS | -1.76
HMTMQTAEQESRLEQKLIDLSVGIDRFEGYSRPHGQLIASIADRIGTRLGMAAHDRFYMQQAAL | 0.107

Dear colleague, could you send me soluble fraction (log2) for each of the items below? Thanks.
1. HMDNREKLRQEFLENLKELQEQNDIPQQEIDRVILDYDGVAEFLEDEGALKRYGGQLVDMTAYRAGAIPS
2. HMVKNTIHVDLKGEVNKPGVYEVEEGTIVNDLITLANGFTKNAYQDNINLSKKLTDEMVIVVSKKGS
3. HMGLTYEQILTDVQRFVTQNHADTLSNEGNPEEARKLLKDYILQYVQNRSYHVDGQTTEELVDSLYED
4. HMTATKDLPFSTFITEVEKGNITSVDIKGNQIEGTFSNGAKFKTYSPNYPNLVERLADKGVAISAGPS
5. HMKGILVPASSIISDGDKNYVWTVEKGKAKKVEVTLGNADAENQEISSGLTKDSKVITNPTDSLKDGQEV
6. HMHDAKAEIIRLSALLTEYQRSYYIDGHSQVSDLEYDRLFDRLVALETSHPELREADSPTQRV
7. HMREYRITAEEGHPRIDVFLAGRPEIGLSRSRIQALIDEGQVTLNGAMPKARQAVNPGDVIVVRVPDPE

[-0.0987, 0.337, -0.195, 0.047, 0.162, -0.855, 0.263]

The following sequences each have a reported value; give each one's soluble fraction (log2).
1. HMNLGDLYVIMEIAGQRDDVSARLMNREGQTFLVKTGTKLKSGDVVKEITPTYIKTDHDGEEAFLYF
2. HMGKVLIYKPNMSVSDVAIRLGISNAEIIKRLMGLGVMTSINQTIDRDTIELVAMDLGFSIEN
3. HMDWVAYGAELRRRRLLAGWSVAELSRRTNLSTSIIYQVEQARTRLRPSQLTLAKLAAALGMP
4. HMPSGRIRWFDAKKGYGFIAGDDGKDVFLPQTALPQGVRNPRKGAKVEYSVIEGNRGQVAMGVTMV
5. HMNNFNVVVGKAIKNSFNTRENYITINAGKVLGIKTDMGVINDKGIVGIVEKTSKDFATIQSVLNIKS
6. HMTNALDMMKTMDSDAYTKYQKISKESSNEDRQLNELKYITNWYAGAVKKNPSMVDDYEKQKEADS

1. -0.542
2. -0.656
3. -3.15
4. -0.0368
5. 0.00115
6. 0.159

Origin of the recorded values: the domain aggregation screens of Martell et al. (2025)
